Sequence of the target: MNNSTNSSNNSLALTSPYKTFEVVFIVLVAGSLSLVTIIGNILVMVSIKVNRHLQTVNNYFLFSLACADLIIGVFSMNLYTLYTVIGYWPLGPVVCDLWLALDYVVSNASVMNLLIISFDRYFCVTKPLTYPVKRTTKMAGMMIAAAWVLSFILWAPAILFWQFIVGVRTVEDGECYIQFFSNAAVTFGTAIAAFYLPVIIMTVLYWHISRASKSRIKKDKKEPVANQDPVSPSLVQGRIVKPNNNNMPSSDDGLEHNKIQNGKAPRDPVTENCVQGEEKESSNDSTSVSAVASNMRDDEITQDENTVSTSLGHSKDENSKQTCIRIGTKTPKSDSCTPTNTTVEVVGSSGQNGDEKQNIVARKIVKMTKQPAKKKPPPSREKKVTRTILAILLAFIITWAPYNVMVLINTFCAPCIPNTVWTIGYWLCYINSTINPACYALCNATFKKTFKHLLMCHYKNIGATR
value type: Ki (nM)
Answer in nM, number only, no unit symbol.

Item C[N+]1(C)[C@@H]2CC[C@H]1C[C@@H](OC(=O)C(CO)c1ccccc1)C2 (stereo partly shown) [Methyl Atropine, methyl atropine] : provide Ki
7.8

The measured values listed here are drawn from patent US12527739B2.
